Cited source for all entries: paper PMC11594329

Attribute: Tissue distribution, Salivary glands
# assay-procedure: Tissue distribution in ICR mice (normal animals)
# Type: in vivo
# conditions: 1 h after injection
measurement-kind: Tissue distribution, Salivary glands

COc1ccc(C[C@](C)(N)C(=O)O)cc1[211At] [^211At-AAMT-O-Me-L]: 7.16 ± 1.54 %ID/g
COc1ccc(C[C@@](C)(N)C(=O)O)cc1[211At] [^211At-AAMT-O-Me-D]: 4.67 ± 1.03 %ID/g
CCOc1ccc(C[C@](C)(N)C(=O)O)cc1[211At] [^211At-AAMT-O-Et-L]: 7.08 ± 2.00 %ID/g
CCCOc1ccc(C[C@](C)(N)C(=O)O)cc1[211At] [^211At-AAMT-O-Pr-L]: 14.23 ± 3.16 %ID/g
